Test: photoluminescence quantum yield (fraction); solvent given as SMILES
Conditions: in CCOC(C)=O
I'd appreciate it if you could supply photoluminescence quantum yield values for the items below.

Consider the following illustrative entries.
{"Compound": "CCC1=C(C)C2=Cc3cc(I)c(I)n3[B-](F)(F)[N+]2=C1C", "Value": 0.19}
{"Compound": "O=C(c1ccc(N(c2ccccc2)c2ccccc2)cc1)[C@H]1[C@H](c2ccc(F)cc2)C[C@](O)(c2ccccn2)C[C@]1(O)c1ccccn1", "Value": 0.34}
{"Compound": "O=C(O)c1ccccc1Nc1cccc(C(F)(F)F)c1", "Value": 0.014}
{"Compound": "COc1nc(Nc2ccc3c4c(cccc24)C(=O)c2ccccc2-3)nc(OC)n1", "Value": 0.58}
{"Compound": "CCC1=C(C)C2=C(C)c3cccn3[B-](F)(F)[N+]2=C1C", "Value": 0.84}
{"Compound": "COc1cc(N(c2ccccc2)c2ccc(C=C(C#N)C#N)c(OC)c2)ccc1C=C(C#N)C#N", "Value": 0.085}
{"Compound": "Cc1ccc([C@@H]2C[C@](O)(c3ccccn3)C[C@](O)(c3ccccn3)[C@H]2C(=O)c2ccc(N(c3ccccc3)c3ccccc3)cc2)cc1", "Value": 0.44}
{"Compound": "CCCCCCCCC1(CCCCCCCC)c2ccccc2-c2ccc(N(c3ccc(-n4c5ccccc5c5ccccc54)cc3)c3ccc4c(c3)C(CCCCCCCC)(CCCCCCCC)c3ccccc3-4)cc21", "Value": 0.3}
{"Compound": "O=c1oc2ccccc2cc1-c1nc2ccccc2o1", "Value": 0.86}
{"Compound": "COC(=O)c1nc(-c2cccc3ccccc23)oc1C", "Value": 0.54}

Go through the list and state photoluminescence quantum yield for each entry.
1. CCN(CC)c1ccc2cc(/C=C/C3=C4CC/C(=C\c5cc6ccc(N(CC)CC)cc6oc5=O)C4=[O+][B-](F)(F)O3)c(=O)oc2c1
2. CCOC(=O)/C(C#N)=C\c1ccc2c(c1)c1ccccc1n2-c1ccc(C)cc1
3. O=C1/C(=C/C=C/c2cc3c4c(c2)CCCN4CCC3)CC/C1=C\C=C\c1cc2c3c(c1)CCCN3CCC2
4. CCCCN1c2ccccc2Sc2cc(/C=C/c3nc4nc5ccccc5nc4s3)ccc21

Reply:
0.2
0.11
0.1
0.02

---

I'd appreciate it if you could supply photoluminescence quantum yield values for the items below.
Assay: photoluminescence quantum yield (fraction); solvent given as SMILES
Conditions: in ClCCl
One number for each entry.

{"Compound": "F[B-]1(F)n2c(c3c(c2-c2ccccc2)C2C=CC3CC2)C(c2ccccc2)=C2C3=C(C(c4ccccc4)=[N+]21)C1C=CC3CC1 (stereo not drawn)", "photoluminescence quantum yield": 0.87}
{"Compound": "O=P1(c2ccccc2)C(c2cc(C(F)(F)F)cc(C(F)(F)F)c2)=Cc2c3ccc4cccc5ccc(c6cc(-c7ccccc7)n1c26)c3c45 (stereo not drawn)", "photoluminescence quantum yield": 0.61}
{"Compound": "COC(=O)CCC1=CC(C#Cc2ccsc2)=[N+]2C1=Cc1c(CCC(=O)OC)cc(C#Cc3ccsc3)n1[B-]2(F)F", "photoluminescence quantum yield": 0.39}
{"Compound": "Cc1cc(-c2ccc(C(C)(C)C)cc2)cc(C)[o+]1", "photoluminescence quantum yield": 0.25}
{"Compound": "COc1cccc(C2=c3c(c4ccc(C(C)(C)C)cc4c4cc(C(C)(C)C)ccc34)=[N+]3C2=C(c2ccccc2)c2c(-c4cccc(OC)c4)c4c5ccc(C(C)(C)C)cc5c5cc(C(C)(C)C)ccc5c4n2[B-]3(F)F)c1", "photoluminescence quantum yield": 0.54}

Go through the list and state photoluminescence quantum yield for each entry.
1. c1ccc(C2(c3ccccc3)c3ccc4ccc5ccccc5c4c3-c3c2ccc2ccc4ccccc4c32)cc1
2. CN1c2ccc(C(=O)c3ccccc3)cc2Sc2cc(C(=O)c3ccccc3)ccc21
3. Clc1cc(Cl)c(B2c3ccccc3Nc3ccccc32)c(Cl)c1
4. CCCCCCc1ccc2c3c(ccc2c1)O[B-](F)(F)[N+](c1cc([N+]2=Cc4c(ccc5cc(CCCCCC)ccc45)O[B-]2(F)F)cc([N+]2=Cc4c(ccc5cc(CCCCCC)ccc45)O[B-]2(F)F)c1)=C3
5. CC(C)[Si](C#Cc1cc2c3c(c1)c(=C1c4ccccc4Sc4ccccc41)c1cc(C#C[Si](C(C)C)(C(C)C)C(C)C)cc4c1N3c1c(cc(C#C[Si](C(C)C)(C(C)C)C(C)C)cc1c4=C1c3ccccc3Sc3ccccc31)c2=C1c2ccccc2Sc2ccccc21)(C(C)C)C(C)C
6. O=c1cc(-c2nc3ccccn3c2NC2CCCCC2)occ1OCc1ccccc1
7. c1csc(-c2ccc(-c3ccc(-c4cccs4)s3)s2)c1
8. CCN(CC)c1ccc2cc(-c3nc4cc(C(=O)Nc5ccccc5Cl)ccc4o3)c(=O)oc2c1

Reply:
1: 0.4; 2: 0.23; 3: 0.82; 4: 0.44; 5: 0.46; 6: 0.209; 7: 0.16; 8: 0.23

Go through the list and state photoluminescence quantum yield for each entry.
1. Cc1ccc(C2=Nc3cccc4[n+]3[B-](F)(O2)OC(c2ccc(C)cc2)=N4)cc1
2. COc1ccc(C#Cc2c3cc4cc(C)sc4cc3c(C#Cc3ccc(OC)cc3)c3cc4cc(C)sc4cc23)cc1
3. CCN(CC)c1ccc2c(c1)oc(=O)c1cc3c(-c4ccccc4)nn(-c4ccccc4)c3nc12
4. C(=C\c1ccc(N(c2ccccc2)c2ccccc2)cc1)/c1ccc(-c2ccc(/C=C/c3ccc(N(c4ccccc4)c4ccccc4)cc3)cc2)cc1
5. Cc1cc(O)c(C(=O)/C=C/c2ccc(N(C)C)cc2)c(=O)o1

Reply:
0.3
0.92
0.24
0.86
0.538

---

Test: photoluminescence quantum yield (fraction); solvent given as SMILES
Conditions: in C1CCOC1
Property Label: photoluminescence quantum yield
Answers are plain numbers.

Consider the following illustrative entries.
{"Smiles Record": "Cc1ccc([C@@H]2C[C@](O)(c3ccccn3)C[C@](O)(c3ccccn3)[C@H]2C(=O)c2ccc(N(c3ccccc3)c3ccccc3)cc2)cc1", "photoluminescence quantum yield": 0.54}
{"Smiles Record": "CCCCCCCCCCn1nnc(-c2ccc(C#Cc3ccc(C#Cc4ccc(-c5nnn(CCCCCCCCCC)n5)cc4)c4nc5c6ccccc6c6ccccc6c5nc34)cc2)n1", "photoluminescence quantum yield": 0.05}
{"Smiles Record": "COc1cc2c(cc1-c1ccc(C(F)(F)F)cc1)Cc1c3c(c4c(c1-2)-c1cc(OC)c(-c2ccc(C(F)(F)F)cc2)cc1C4)C(=O)N(CCC(C)C)C3=O", "photoluminescence quantum yield": 0.45}
{"Smiles Record": "CCc1c(C)[nH]c(C2=[N+]3C(=C(C)c4c(C)c(CC)c(C)n4[B-]3(F)F)c3ccccc32)c1C", "photoluminescence quantum yield": 0.27}

Task item: May I ask what photoluminescence quantum yield has been recorded for "C1=Cc2ccccc2C(=Cc2ccc(-c3cc(-c4ccc(C=C5c6ccccc6C=Cc6ccccc65)cc4)cc(-c4ccc(C=C5c6ccccc6C=Cc6ccccc65)cc4)c3)cc2)c2ccccc21" ?
Reply: 0.0023

---

Assay: photoluminescence quantum yield (fraction); solvent given as SMILES
Conditions: in ClCCl
// classify: if (photoluminescence quantum yield < 0.7) class 1 else class 0

Task item: Say whether its photoluminescence quantum yield is strictly beneath 0.7. Entry: Cc1ccc(-c2c3nc(c(-c4ccc(C)cc4)c4ccc([nH]4)c(-c4ccc(OC(=O)C(C)c5cccc(C(=O)c6ccccc6)c5)cc4)c4nc(c(-c5ccc(C)cc5)c5ccc2[nH]5)C=C4)C=C3)cc1 (stereo not given)
Reply: class 1

Task item: Say whether its photoluminescence quantum yield is strictly beneath 0.7. Entry: "c1ccc(N(c2ccccc2)c2ccc3ccc4c(N(c5ccccc5)c5ccccc5)ccc5ccc2c3c54)cc1"
Reply: class 0

Task item: Say whether its photoluminescence quantum yield is strictly beneath 0.7. Entry: "COc1c2ccccc2c(OC)c2c1c1c(F)cccc1n2C"
Reply: class 1

Task item: Say whether its photoluminescence quantum yield is strictly beneath 0.7. Entry: "CCCCCCCCCCCCOc1cc2cc(N(C)C)ccc2cc1C=O"
Reply: class 0

---

Assay: photoluminescence quantum yield (fraction); solvent given as SMILES
Conditions: in CCO
// classify: if (photoluminescence quantum yield < 0.1) Yes else No

Solved entries (count: 2):
{"Smiles Record": "CCC1=C(C)C2=C(C)c3cccn3[B-](F)(F)[N+]2=C1C", "Category": "No"}
{"Smiles Record": "COC(=O)c1cc(=O)n(C)c2cc(-c3ccc(OC)cc3)sc12", "Category": "No"}

Task item: Say whether its photoluminescence quantum yield is strictly beneath 0.1. Entry: "CC1=[N+]2C(=C(c3c4ccccc4cc4ccccc34)c3ccc(C)n3[B-]2(F)F)C=C1"
Reply: Yes

Task item: Say whether its photoluminescence quantum yield is strictly beneath 0.1. Entry: "Nc1cccc2c1C(=O)c1ccccc1-2"
Reply: Yes

---

Test: photoluminescence quantum yield (fraction); solvent given as SMILES
Conditions: in CCOCC
// classify: if (photoluminescence quantum yield < 0.2) met else not met

{"Smiles Record": "COc1ccc(/C=C2\\OC(=O)c3ccccc32)cc1", "Category": "met"}
{"Smiles Record": "CCC1(CC)c2cc(N(C)C)ccc2-c2ccc(C(F)(F)F)cc21", "Category": "not met"}
{"Smiles Record": "CC(=O)Nc1ccc(/C=C2\\OC(=O)c3cc(N)ccc32)cc1", "Category": "met"}
{"Smiles Record": "Nc1ccc2c(c1)C(=O)O/C2=C\\c1ccc(Cl)cc1", "Category": "met"}
{"Smiles Record": "COc1ccc(/C=C/C2=CC(/C=C/c3ccc(OC)c4ccccc34)=[O+][B-](F)(F)O2)c2ccccc12", "Category": "not met"}
{"Smiles Record": "COC(=O)c1ccc(C#Cc2ccc(N(C)C)cc2)cc1", "Category": "not met"}

Task item: Say whether its photoluminescence quantum yield is strictly beneath 0.2. Entry: "CN(C)c1ccc(-c2cc(=O)c3ccccc3o2)cc1"
Reply: not met

Task item: Say whether its photoluminescence quantum yield is strictly beneath 0.2. Entry: "CN(C)c1ccc(C2=Cc3ccc4ccccc4[n+]3[B-](F)(F)O2)cc1"
Reply: not met

These data points were gathered from the Deep4Chem optical property database.
